Source of measurements: ChEMBL document CHEMBL1201862

I'd appreciate it if you could supply GI50 values for the items below.
Test system: NCI-H522
Test: NCI tumour cell line growth inhibition, 48 h
The source made the active and inactive calls. No stated cut-off is given here; in the data, active = GI50 up to about 1.1 µM and inactive = higher.

Consider the worked cases shown below.
>>> reading("CC1=CCC2(C#N)CCC1C2=O (configuration not stated)")
"> 100 µM (inactive)"
>>> reading("COc1cc([C@H]2CC(=O)C[C@@H](c3cc(OC)c(OC)c(OC)c3)C23C(=O)c2ccccc2C3=O)cc(OC)c1OC")
"> 100 µM (inactive)"
>>> reading("CC(/C=N/N=C(N)N)=N\\N=C(N)N")
"29.7 µM (inactive)"
>>> reading("[N-]=[N+]=C(C(=O)CN1CCCC1=O)S(=O)(=O)c1ccccc1")
"> 100 µM (inactive)"
>>> reading("COc1c(O)ccc(C2=Cc3ccc(O)cc3OC2)c1OC")
"2.34 µM (inactive)"

Hello, I would appreciate it if you could give GI50 for each entry below.
1. Cc1nc(Cl)nc(Cl)c1C
2. O=C(C[N+]1(c2ccccc2)CCOCC1)c1ccccc1
3. CCOC(=O)NC(Nc1ccc(F)cc1F)(C(F)(F)F)C(F)(F)F
4. CC(NC1=NCCO1)c1cccc([N+](=O)[O-])c1 (configuration not stated)
5. O=C1OCC2(CO1)CC1C=CC2C1 (configuration not stated)

A)
1: > 100 µM (inactive); 2: 45.7 µM (inactive); 3: > 100 µM (inactive); 4: > 100 µM (inactive); 5: > 100 µM (inactive)

Hello, I would appreciate it if you could give GI50 for each entry below.
1. N#C/C(=C\Nc1ccccn1)C(=O)c1ccco1
2. COc1ccc(/C=C(\Cl)c2ccc(OC)cc2)cc1

A)
1: > 100 µM (inactive); 2: > 100 µM (inactive)

---

System: IGROV-1
Experiment: NCI tumour cell line growth inhibition, 48 h
Activity calls are given as the source filed them. No stated cut-off is given here; in the data, active = GI50 up to about 1.1 µM and inactive = higher.
MEASURED_ENDPOINT: GI50

>>> reading("NC(=O)/N=C1\\NCCC(=O)N1CCc1c[nH]c2ccccc12")
"21.2 µM (inactive)"
>>> reading("CCCC[C@H]1[C@@H](OCOc2ccccc2)COC(=O)N1[C@H](C)c1ccccc1")
"14.7 µM (inactive)"
>>> reading("COc1ccccc1/C=C/C1=NN(c2cccc(S(=O)(=O)O)c2)C2(C1)SCC(=O)N2c1nc2ccccc2s1 (stereo not drawn)")
"21.4 µM (inactive)"
>>> reading("CC1CC2CCCC(=O)C2=C(O)O1 (stereo not drawn)")
"> 100 µM (inactive)"
>>> reading("O=C(OC1C2OC(=O)c3cc(O)c(O)c(O)c3Oc3cc4c(c(O)c3O)-c3c(cc(O)c(O)c3O)C(=O)OCC3OC(O)C(OC(=O)c5cc(O)c(O)c(O)c5Oc5cc6c(c(O)c5O)-c5c(cc(O)c(O)c5O)C(=O)OC1C(COC6=O)OC2O)C(OC(=O)c1cc(O)c(O)c(O)c1)C3OC4=O)c1cc(O)c(O)c(O)c1 (stereo not drawn)")
"40.2 µM (inactive)"

Hello, I would appreciate it if you could give GI50 for each entry below.
1. COc1cc2c3c(c1OC)-c1c(ccc4c1OCO4)CC3(C#N)N(C(=O)c1ccccc1)CC2 (stereo not drawn)
2. CCC(C)COC(=O)c1ccc(/N=C\c2ccc(/C=N/c3ccc(C(=O)OCC(C)CC)cc3)cc2)cc1 (stereo not drawn)

A)
> 100 µM (inactive)
> 100 µM (inactive)

Q) Notebook: pull reported GI50 for IGROV-1, entry COCN1C(=O)[C@@H]2C[C@@H](O)CN2C(=O)c2ccccc21
A) > 100 µM (inactive)

---

Tested on: T47D
Experiment: NCI tumour cell line growth inhibition, 48 h
The source made the active and inactive calls. Cut-off read from the data, not from the text of the source: active = GI50 up to about 1.1 µM and inactive = higher.
Answer with one of the outcomes given here: t = active, f = inactive

Solved cases (6 shown):
>>> class("C=C1CC2CC(=O)C(O)C(C1)C2 (stereo not drawn)")
"f"
>>> class("COc1ccc(NC(=O)/C(=N/NC(N)=S)C2C(=O)NC(=S)NC2=O)c(OC)c1")
"f"
>>> class("COC1CC(N)(c2ccccc2)C(O)C(C)O1 (stereo not drawn)")
"f"
>>> class("Brc1ccc(-c2[nH]c3ccccc3c2/C=N\\Nc2ccc(-c3nc4ccccc4[nH]3)cc2)cc1")
"f"
>>> class("S=C1Cc2c([nH]c3ccccc23)-c2ccccc2N1")
"f"
>>> class("O=c1ccc(=O)n(-c2ccccc2)[nH]1")
"f"

Q) Each molecule tested received a call. Report the one for OCCN(C1=NCCN1)/[N+](=C\c1ccccn1)[CH-]c1ccccn1 .
A) f

Q) Each molecule tested received a call. Report the one for O=C1/C(=C/c2ccc(O)c([N+](=O)[O-])c2)CCC/C1=C\c1ccc(O)c([N+](=O)[O-])c1 .
A) f

Q) Each molecule tested received a call. Report the one for CCOC(=O)OC1(c2ccccc2)CCN(C)CC1 .
A) f

Q) Each molecule tested received a call. Report the one for Nc1nc(Sc2ccc([N+](=O)[O-])c3nonc23)c2nc[nH]c2n1 .
A) f

Q) Each molecule tested received a call. Report the one for COc1ccc2cc(CNCCCCCCCCNCc3ccc4cc(OC)ccc4c3)ccc2c1 .
A) f

Q) Each molecule tested received a call. Report the one for CC(C)n1c2c(c3ccccc3c1=O)C(=O)c1ccccc1-2 .
A) f

Q) Each molecule tested received a call. Report the one for COc1ccccc1/C=C/C1=NN(c2cccc(S(=O)(=O)O)c2)C2(C1)SCC(=O)N2c1nc2ccccc2s1 (stereo not drawn) .
A) f

Q) Each molecule tested received a call. Report the one for NCCSCCC(=O)O .
A) f

Q) Each molecule tested received a call. Report the one for CCc1cc2c(cc1CCCC(=O)O)CC1(Cc3ccc(C(=O)O)cc3C1)C2 (stereo not drawn) .
A) f

Q) Each molecule tested received a call. Report the one for Cc1nnc(N)nc1/C=C\c1cccs1 .
A) f

Q) Each molecule tested received a call. Report the one for CC1(C)NC2C(=O)c3c([nH]c4ccccc34)[C@]3(C)CCC1CC23 (stereo partly drawn) .
A) f

Q) Each molecule tested received a call. Report the one for O=C(NC1=C(Cl)C(=O)c2ccccc2C1=O)C(=O)C(C(=O)c1ccc2ccccc2c1)C1OC(=O)c2ccccc21 (stereo not drawn) .
A) f

Q) Each molecule tested received a call. Report the one for O=C(/C=C/c1ccccc1)Oc1cccc(Br)c1 .
A) f

Q) Each molecule tested received a call. Report the one for CN1CCCN(C)C1c1cc([N+](=O)[O-])ccc1O .
A) f

Q) Each molecule tested received a call. Report the one for COC(=O)C1=Nc2c(C)nn(-c3ccccc3)c2N=C(c2ccc(C)cc2)C1 .
A) f

---

System: SR
Assay: NCI tumour cell line growth inhibition, 48 h
Calls of active or inactive are those of the source. Cut-off read from the data, not from the text of the source: active = GI50 up to about 1.1 µM and inactive = higher.
I'd appreciate it if you could supply GI50 values for the items below.

>>> reading("CC1(C)NC2C(=O)c3c([nH]c4ccccc34)[C@]3(C)CCC1CC23 (stereo partly specified)")
"55.2 µM (inactive)"
>>> reading("CN(C)/C=N/[C@@H](C(=O)O)c1ccccc1")
"> 100 µM (inactive)"
>>> reading("CCCCCCN1C(=O)CC(=O)N(CCCCCC)S1(=O)=O")
"26.9 µM (inactive)"
>>> reading("O=C1c2ccccc2C(=O)[C@@]23O[C@@]12C1(Oc2cccc4cccc(c24)O1)[C@@H]1O[C@@H]1[C@@H]3O")
"1.43 µM (inactive)"
>>> reading("COc1ccc(C(=O)Nc2ccn(CCOC(=O)c3ccc(OC)cc3)c(=O)n2)cc1")
"> 100 µM (inactive)"

// switching to the query molecule
Q) Which value of GI50 has been reported for Cc1c2ccccc2c(C)n2c1nc1cc(Cl)c(Cl)cc12 in the records?
A) > 10 µM (inactive)

---

System: HCT-116
Assay: NCI tumour cell line growth inhibition, 48 h
Activity calls are given as the source filed them. Cut-off read from the data, not from the text of the source: active = GI50 up to about 1.1 µM and inactive = higher.
Answer with one of the outcomes given here: active, inactive

>>> class("CC1=C[C@]2(CC(C)C3C(CC4(C)C5CCC6C(C)(C)C(=O)CC[C@@]67C[C@@]57CC[C@]34C)O2)OC1=O (stereo partly specified)")
"inactive"
>>> class("N#CCCC1(CCC#N)CCCCCCC(CCC#N)(CCC#N)C(O)C1O (stereo unspecified)")
"inactive"
>>> class("O=C1C2=C(c3ccccc31)C(c1cccc(Cl)c1)NC(S)=N2 (stereo unspecified)")
"inactive"
>>> class("COc1cccc2nc3cc(C)c(C)cc3nc12")
"inactive"
>>> class("Nc1ncc2c(n1)-c1ccccc1OC2")
"inactive"

Q) Each compound tested received a call. Report the one for Cc1ccc2c(c1)c1ccc3c(c1n2C)C(=O)C=CC3=O .
A) inactive

Q) Each compound tested received a call. Report the one for CSC1=N/C(=C\c2cccs2)C(=O)N1CN1CCCCC1 .
A) inactive

Q) Each compound tested received a call. Report the one for C[P+](C)(C)C .
A) inactive

Q) Each compound tested received a call. Report the one for COc1cc(Nc2nc3ccccc3n3cccc23)cc(OC)c1OC .
A) inactive

Q) Each compound tested received a call. Report the one for CC(C)n1c2c(c3ccccc3c1=O)C(=O)c1ccccc1-2 .
A) inactive

Q) Each compound tested received a call. Report the one for CCOC(=O)C12CCC(=O)N1N(C)c1ncccc1N2 (stereo unspecified) .
A) inactive

Q) Each compound tested received a call. Report the one for COC1C(O)CC(OC2CC(Oc3cc4cc5c(c(O)c4c(O)c3C)C(=O)[C@@H](OC3CC(OC4CC(OC6CC(C)(O)C(OC(C)=O)C(C)O6)C(O)C(C)O4)C(O)C(C)O3)[C@H]([C@H](OC)C(=O)[C@@H](O)[C@@H](C)O)C5)OC(C)C2OC(C)=O)OC1C (stereo partly specified) .
A) active

Q) Each compound tested received a call. Report the one for CO/C(N)=C(C#N)/N=C/c1ccco1 .
A) inactive

Q) Each compound tested received a call. Report the one for CN(C)N1C(=O)CC2(CCN(CCCC(=O)c3ccc(F)cc3)CC2)C1=O .
A) inactive

Q) Each compound tested received a call. Report the one for NC(N)=NCCC[C@H](N)C(=O)NCC(=O)N[C@@H](CC(=O)O)c1ncc(NC(=O)C(F)(F)F)o1 .
A) inactive

Q) Each compound tested received a call. Report the one for COC(=O)C1=C(C)NC(C)=C(C(=O)OC)C1c1ccc(N=O)cc1 .
A) inactive

Q) Each compound tested received a call. Report the one for O=C1C=CC(=O)N1Nc1ccc([N+](=O)[O-])cc1[N+](=O)[O-] .
A) inactive

Q) Each compound tested received a call. Report the one for C1CSCCSCCSCCSCCS1 .
A) inactive

Q) Each compound tested received a call. Report the one for N#Cc1cc2c(cc1Cl)Sc1nccn1S2(=O)=O .
A) inactive

Q) Each compound tested received a call. Report the one for CCOC(C)OC1CC(n2cc(C)c(=O)[nH]c2=O)OC1CO (stereo unspecified) .
A) inactive

Q) Each compound tested received a call. Report the one for NC(=O)N/N=C(/CC1C(=O)Oc2ccccc21)c1ccccc1O (stereo unspecified) .
A) inactive
